- Tgt: T1, AFP p26 (human, UniProt P02771 381-609)
- T1 construct: The construct used is not described
- T1 sequence: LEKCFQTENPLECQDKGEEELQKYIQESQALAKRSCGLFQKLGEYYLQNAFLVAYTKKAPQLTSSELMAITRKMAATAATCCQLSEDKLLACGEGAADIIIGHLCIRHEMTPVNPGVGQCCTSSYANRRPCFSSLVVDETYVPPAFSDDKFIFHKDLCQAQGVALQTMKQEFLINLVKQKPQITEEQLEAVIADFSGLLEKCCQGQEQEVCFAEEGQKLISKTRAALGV
- Assay Details: phage ELISA, A450 target/A450 IgG1-Fc

{"Binder": "SEQ ID NO 770 (designed binder) MGSWVEFHYRLQAIDARLWALGGSEAELAAFEKEIAAFESELQAYKGKGNPEVEELRVHAAHIRKWLQAYRHN", "ELISA_avg": "14.8 ratio"}
{"Binder": "SEQ ID NO 808 (designed binder) MGSWVEFYERLNAIEYRLEALGGSEAELAAFEKEIAAFESELQAYKGKGNPEVESLREHAAYIRQWLQAYRHN", "ELISA_avg": "28.7 ratio"}
{"Binder": "SEQ ID NO 832 (designed binder) MGSWLLFKSELAWIKWYLEALGGSEAELAEFEWNIAEFEKNLQKYKGKGNPEVEALRKEAAAIRDELQAYRHN", "ELISA_avg": "25.7 ratio"}
{"Binder": "SEQ ID NO 788 (designed binder) MGSWLEFHSRLDAIDTRLWALGGSEAELAAFEKEIAAFESELQAYKGKGNPEVEKLREHAAAIRHYLQAYRHN", "ELISA_avg": "30.8 ratio"}
{"Binder": "SEQ ID NO 858 (designed binder) MGSWFTFKDDLAQIKNRLEALGGSEAELANFEMSIAWFEFMLQYYKGKGNPEVEALRKEAAAIRDELQAYRHN", "ELISA_avg": "30.8 ratio"}
{"Binder": "SEQ ID NO 772 (designed binder) MGSWNEFMDRLNAIDNRLWALGGSEAELAAFEKEIAAFESELQAYKGKGNPEVENLRKQAASIRLWLQAYRHN", "ELISA_avg": "10 ratio"}
{"Binder": "SEQ ID NO 846 (designed binder) MGSWYWFKYELAEIKWHLEALGGSEAELAHFEHSIAVFESQLQQYKGKGNPEVEALRKEAAAIRDELQAYRHN", "ELISA_avg": "21.5 ratio"}
{"Binder": "SEQ ID NO 771 (designed binder) MGSWVEFVGRLNAIDARLWALGGSEAELAAFEKEIAAFESELQAYKGKGNPEVEELRHHAAEIRNWLQAYRHN", "ELISA_avg": "26 ratio"}
{"Binder": "SEQ ID NO 790 (designed binder) MGSWAEFSDRLNAIDQRLWALGGSEAELAAFEKEIAAFESELQAYKGKGNPEVEILREHAAEIRKFLQAYRHN", "ELISA_avg": "25.3 ratio"}
{"Binder": "SEQ ID NO 802 (designed binder) MGSWSEFVHRLDAIEVRLFALGGSEAELAAFEKEIAAFESELQAYKGKGNPEVEELRYHAAKIRSWLQAYRHN", "ELISA_avg": "16.9 ratio"}
